So I've got IC50 readings for Genome polyprotein (West Nile virus), take a look.
metric_name: IC50 (nM)

# mol_smiles, system, readout_value
records = [
    ("C#CCCN1C(=O)S/C(=C\\c2ccc(C(=O)N[C@@H](CCCNC(=N)N)C(=O)N[C@@H](CCCCN)C(=O)N[C@H](C(N)=O)c3ccccc3)cc2)C1=O", "Genome polyprotein (West Nile virus)", 2120),
]

I = C#CCCCN1C(=O)S/C(=C\c2ccc(C(=O)N[C@@H](CCCNC(=N)N)C(=O)N[C@@H](CCCCN)C(=O)N[C@H](C(N)=O)c3ccccc3)cc2)C1=O
II = N=C(N)NCCC[C@H](NC(=O)c1ccc(/C=C2\SC(=O)N(CC34CC5CC(CC(C5)C3)C4)C2=O)cc1)C(=O)N[C@@H](CCCCN)C(=O)N[C@H](C(N)=O)c1ccccc1
q: Lowest IC50? choose I or II Which one? Tell me its label.
a: II
